Biological target: human insulin receptor (HIR) (human) (UniProt P06213)
Assay: HIR Kd; method not restated (Example 3: 125I-insulin displacement, solubilised HIR)
Reported Metric: Kd
Value and unit, in that order.

Input line: Form field: reported Kd of RB538 (peptide) peptide: MADYKDDDDKGSLDESFYDWFERQLGKKGGSGGSGGSGGSWLDQEWAWVQCEVYGRGCPSAAAGAPVPYPDPLEPRPG
Output line: 0.017 nM

Input line: Consider next the binder RB517 (peptide) peptide: DYKDDDDKHLCVLEELFWGASLFGYCSGGGSGGSHLCVLEELFWGASLFGYCSGAAAGAPVPYPDPLEPRAA in the same way.
Output line: 60 nM

Input line: Consider next the binder RB537 (peptide) peptide: MADYKDDDDKGSLDESFYDWFERQLGKKGGSGGSWLDQEWAWVQCEVYGRGCPSAAAGAPVPYPDPLEPRPG in the same way.
Output line: 0.059 nM

Input line: Consider next the binder Fusion 435 (MBP fusion of H2C-3aa-H2C-3aa-H2C) (protein, not shown: large carriers; small tags and cut ends) NNNNLGIEGRISEFIEGRAQPAMAFHENFYDWFVRQVSGGSFHENFYDWFVRQVSGGSFHENFYDWFVRQVSAAAGAPVPYPDPLEPRAA in the same way.
Output line: 20 nM

Input line: Consider next the binder Fusion 436 (MBP fusion of H2C-9aa-H2C) (protein, not shown: large carriers; small tags and cut ends) NNNNLGIEGRISEFIEGRAQPAMAFHENFYDWFVRQVSGGSGGSGGSFHENFYDWFVRQVSAAAGAPVPYPDPLEPRAA in the same way.
Output line: 410 nM
